target: γ-secretase in the HeLa membrane (Homo sapiens, UniProt P05067); assay: AlphaLISA γ-secretase assay with biotinylated Sb4 (APP sequence) substrate; format: biochemical; parameters: other: γ-secretase in HeLa membrane, Sb4 substrate; fused on or other part: Biotin label on Sb4; settings: γ-secretase in HeLa membrane, Sb4 substrate; read-out: IC50 for the inhibition of Aβ42 production
Sequence (P05067 whole entry, the tested form may be a part): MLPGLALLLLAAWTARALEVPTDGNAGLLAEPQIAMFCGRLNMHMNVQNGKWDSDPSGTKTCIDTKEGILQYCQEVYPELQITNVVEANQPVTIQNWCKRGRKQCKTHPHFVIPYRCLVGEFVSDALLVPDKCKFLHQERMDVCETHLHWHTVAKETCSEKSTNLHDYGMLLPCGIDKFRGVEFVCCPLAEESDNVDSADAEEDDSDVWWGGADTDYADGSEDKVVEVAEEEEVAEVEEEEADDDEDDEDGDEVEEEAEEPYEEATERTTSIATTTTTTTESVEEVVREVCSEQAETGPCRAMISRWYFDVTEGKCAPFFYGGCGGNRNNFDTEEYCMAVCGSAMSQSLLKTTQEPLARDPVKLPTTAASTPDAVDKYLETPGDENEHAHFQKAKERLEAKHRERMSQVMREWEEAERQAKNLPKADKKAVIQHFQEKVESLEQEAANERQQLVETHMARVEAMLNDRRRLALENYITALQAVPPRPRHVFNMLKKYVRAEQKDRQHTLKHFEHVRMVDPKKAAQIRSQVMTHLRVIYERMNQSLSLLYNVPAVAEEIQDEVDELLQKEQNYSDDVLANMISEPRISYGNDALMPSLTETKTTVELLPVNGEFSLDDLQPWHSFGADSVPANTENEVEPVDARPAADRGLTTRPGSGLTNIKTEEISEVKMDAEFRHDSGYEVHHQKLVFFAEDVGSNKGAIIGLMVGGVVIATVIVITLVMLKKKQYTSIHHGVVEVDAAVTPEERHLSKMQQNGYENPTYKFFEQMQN
measured.attribute: IC50 (nM)
Response body: numeric value in nM, unit text excluded.

## Task IC50 for `O=C(C=COc1ccc2ccccc2c1)c1ccc(F)cc1` ?
## Result 1900

Source listed as patent US12297244B2.
